// IC50 Fold Loss (M-NFS-60 cell proliferation) lookup, one value per entry
- test_target: T1, human macrophage colony stimulating factor (M-CSF) (human, UniProt P09603 33-190, limits assumed)
- T1 sequence: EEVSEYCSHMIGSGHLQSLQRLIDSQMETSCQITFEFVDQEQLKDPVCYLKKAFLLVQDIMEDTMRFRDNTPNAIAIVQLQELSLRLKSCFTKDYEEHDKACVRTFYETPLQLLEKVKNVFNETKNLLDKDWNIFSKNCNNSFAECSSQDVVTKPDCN
- assay_comment: cell-based or functional assay
I only need the number, in fold, no unit after it.

{"binder": "Human Engineered RX1 antibody heRX1-1.G2 (antibody, V domains shown) VH: DVQLQESGPGLVKPSQTLSLTCTVTDYSITSDYAWNWIRQFPGKKLEWMGYISYSGSTSYNPSLKSRITISRDTSKNQFSLQLNSVTAADTATYYCASFDYAHAMDYWGQGTTVTVSS VL: EIVLTQSPGTLSVSPGERVTFSCRASQSIGTSIHWYQQKTGQSPRLLIKYASERISGIPDRFSGSGSGTDFTLTISRVESEDFADYYCQQINSWPTTFGQGTKLEIKR", "units": "fold", "reported_result": 2.8}

Q: Please look up its IC50 Fold Loss (M-NFS-60 cell proliferation): Human Engineered RX1 antibody heRX1-10.G2 (antibody, V domains shown, Human Gamma-2 / Kappa constant regions) VH: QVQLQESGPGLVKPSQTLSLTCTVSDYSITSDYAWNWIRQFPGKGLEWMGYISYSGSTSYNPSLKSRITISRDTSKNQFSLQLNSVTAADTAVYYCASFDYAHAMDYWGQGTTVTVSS VL: DIVLTQSPAFLSVTPGEKVTFTCQASQSIGTSIHWYQQKTDQAPKLLIKYASESISGIPSRFSGSGSGTDFTLTISSVEAEDAADYYCQQINSWPTTFGGGTKLEIKR
Result: 2.2

Q: Please look up its IC50 Fold Loss (M-NFS-60 cell proliferation): Human Engineered RX1 antibody heRX1-7.G2 (antibody, V domains shown) VH: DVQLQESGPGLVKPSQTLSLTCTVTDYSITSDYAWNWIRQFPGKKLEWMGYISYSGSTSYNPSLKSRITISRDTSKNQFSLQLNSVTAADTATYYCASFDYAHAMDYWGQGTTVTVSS VL: EIVLTQSPGTLSVSPGERVTFSCRASQSIGTSIHWYQQKTGQAPRLLIKYASESISGIPDRFSGSGSGTDFTLTISRVESEDFADYYCQQINSWPTTFGQGTKLEIKR
Result: 6.1

Q: Please look up its IC50 Fold Loss (M-NFS-60 cell proliferation): Human Engineered RX1 antibody heRX1-9.G2 (antibody, V domains shown, Human Gamma-2 / Kappa constant regions) VH: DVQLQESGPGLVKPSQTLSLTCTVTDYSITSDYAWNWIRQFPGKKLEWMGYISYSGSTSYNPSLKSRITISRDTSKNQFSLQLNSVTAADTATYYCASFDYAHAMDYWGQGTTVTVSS VL: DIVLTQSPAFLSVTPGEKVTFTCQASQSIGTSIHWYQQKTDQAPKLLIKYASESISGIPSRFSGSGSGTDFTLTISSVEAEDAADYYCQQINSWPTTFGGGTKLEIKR
Result: 3.6
